All values here come from ChEMBL document CHEMBL1146403.

# System: SK-OV-3
# assay-method-text: Cytotoxicity against human SKOV3 cells
# Assay type: functional, cell-based
result-type: IC50 (nM)
// return numeric value only (unit: nM, not printed)

compound: COc1ccc(C[C@H]2NC(=O)/C=C/C[C@@H]([C@H](C)/C=C/c3ccccc3)OC(=O)[C@H](CC(C)C)OC(=O)[C@H](C)CNC2=O)cc1Cl [CRYPTOPHYCIN 3]
IC50 / nM: 1.9
//
compound: COc1ccc(C[C@@H]2NC(=O)/C=C/C[C@@H]([C@H](C)/C=C/c3ccccc3)OC(=O)[C@H](CC(C)C)OC(=O)[C@H](C)CNC2=O)cc1Cl [CRYPTOPHYCIN 46]
IC50 / nM: 750
//
compound: CC(C)C[C@@H]1OC(=O)CCNC(=O)[C@@H](Cc2ccc(O)c(Cl)c2)NC(=O)/C=C/C[C@@H]([C@H](C)[C@H]2O[C@@H]2c2ccccc2)OC1=O [CRYPTOPHYCIN 176]
IC50 / nM: 1.3
//
compound: COc1c(Cl)cc(C[C@H]2NC(=O)/C=C/C[C@@H]([C@H](C)/C=C/c3ccccc3)OC(=O)[C@H](CC(C)C)OC(=O)[C@H](C)CNC2=O)cc1Cl [CRYPTOPHYCIN 175]
IC50 / nM: 100

Output IC50 of COc1ccc(C[C@H]2NC(=O)/C=C/C[C@@H]([C@H](C)[C@H]3O[C@@H]3c3ccccc3)OC(=O)[C@H](CC(C)C)OC(=O)[C@H](C)CNC2=O)cc1Cl [CRYPTOPHYCIN A] 0.0092
